Values from DBAASP

Catalogue of molecules with associated MIC
Test system: Candida albicans
Field format: number, assumed µM, no unit text.

# annotated cases, reported MIC shown
{"Given Smiles": "NCCCC[C@H](NC(=O)[C@H](CCC(=O)O)NC(=O)[C@@H](N)CC(=O)O)C(=O)NCC(=O)N1CCC[C@H]1C(=O)N[C@@H](CCCCN)C(=O)N[C@@H](Cc1c[nH]c2ccccc12)C(=O)N[C@@H](CCCCN)C(=O)N[C@@H](CCCN=C(N)N)C(=O)O", "System Name": "Candida albicans", "MIC / µM": 30.8}
{"Given Smiles": "CC[C@H](C)[C@H](NC(=O)[C@H](CCCN=C(N)N)NC(=O)[C@H](C)NC(=O)[C@H](CC(C)C)NC(=O)[C@@H](N)CCCN=C(N)N)C(=O)N[C@H](C(=O)N[C@H](C(=O)N[C@H](C(=O)N[C@@H](CCCN=C(N)N)C(=O)N[C@@H](Cc1c[nH]c2ccccc12)C(=O)N[C@@H](C)C(=O)N[C@@H](CCCN=C(N)N)C(N)=O)[C@@H](C)CC)C(C)C)C(C)C", "System Name": "Candida albicans", "MIC / µM": 5.3}
{"Given Smiles": "CC[C@H](C)[C@H](NC(=O)[C@@H](N)CCCN=C(N)N)C(=O)N[C@@H](CCCN=C(N)N)C(=O)N[C@@H](CCCN=C(N)N)C(=O)N[C@@H](Cc1c[nH]c2ccccc12)C(=O)N[C@@H](CCCCN)C(=O)N[C@@H](Cc1ccccc1)C(=O)N[C@@H](CCCN=C(N)N)C(=O)N[C@@H](Cc1c[nH]c2ccccc12)C(=O)O", "System Name": "Candida albicans", "MIC / µM": 21.3}
{"Given Smiles": "CC(C)C[C@H](NC(=O)[C@@H](N)CCCN=C(N)N)C(=O)N[C@@H](Cc1c[nH]c2ccccc12)C(=O)N[C@@H](Cc1c[nH]c2ccccc12)C(=O)N[C@@H](Cc1c[nH]c2ccccc12)C(=O)N[C@@H](Cc1c[nH]c2ccccc12)C(=O)N[C@@H](CCCN=C(N)N)C(=O)N[C@@H](CCCN=C(N)N)C(=O)N[C@@H](CCCCN)C(=O)O", "System Name": "Candida albicans", "MIC / µM": 4.1}
{"Given Smiles": "CC[C@H](C)[C@H](NC(=O)[C@H](CC(C)C)NC(=O)[C@H](CCCCN)NC(=O)CNC(=O)[C@@H](NC(=O)[C@@H](N)Cc1ccccc1)[C@@H](C)CC)C(=O)N[C@@H](CO)C(=O)N[C@@H](C)C(=O)N[C@@H](C)C(=O)N[C@@H](CO)C(=O)NCC(=O)N[C@@H](CC(C)C)C(=O)N[C@@H](CC(C)C)C(=O)N[C@@H](CO)C(=O)N[C@@H](Cc1cnc[nH]1)C(=O)N[C@@H](CC(C)C)C(N)=O", "System Name": "Candida albicans", "MIC / µM": 150}

We next turn to a different molecule, shown below.
// query Tell me MIC of CC(C)C[C@H](NC(=O)CNC(=O)CNC(=O)CNC(=O)[C@@H](N)CCCNC(=N)N)C(=O)N[C@H]1CSSC[C@@H](C(=O)N[C@H](C(=O)NCC(=O)N[C@@H](CCCNC(=N)N)C(N)=O)C(C)C)NC(=O)[C@H](C(C)C)NC(=O)[C@@H]2CSSC[C@H](NC(=O)[C@H](Cc3ccc(O)cc3)NC1=O)C(=O)N[C@@H](CCCNC(=N)N)C(=O)N[C@@H](CCCNC(=N)N)C(=O)N[C@@H](CCCNC(=N)N)C(=O)N[C@@H](Cc1ccccc1)C(=O)N2 when tested on Candida albicans.
// result 4.66

---

Entries with their measured MIC, system Escherichia coli ATCC 25922:
Answer in µM, number only, no unit symbol.

Below are worked cases with known answers.
{"Given Smiles": "CC[C@H](C)[C@H](NC(=O)CNC(=O)[C@H](CO)NC(=O)[C@H](CC(C)C)NC(=O)[C@H](CC(C)C)NC(=O)CN)C(=O)N[C@@H](CC(C)C)C(=O)NCC(=O)N[C@@H](C)C(=O)NCC(=O)N[C@@H](CCCCN)C(=O)N[C@@H](CCCN=C(N)N)C(=O)N[C@H](C(=O)N[C@H](C(=O)N[C@H]1CSSC[C@@H](C(=O)O)NC(=O)[C@H](CC(C)C)NC(=O)CNC(=O)[C@H](CO)NC(=O)[C@H](CC(C)C)NC(=O)CNC1=O)C(C)C)[C@@H](C)CC", "Quantity Unit": "µM", "MIC": 2.52}
{"Given Smiles": "CC[C@H](C)[C@H](NC(=O)[C@H](Cc1cnc[nH]1)NC(=O)[C@@H]1CCCN1C(=O)[C@@H](NC(=O)[C@H](CC(C)C)NC(=O)[C@H](CO)NC(=O)[C@H](CC(C)C)NC(=O)[C@@H](N)Cc1ccccc1)[C@@H](C)CC)C(=O)N[C@H](C(=O)N[C@@H](CO)C(=O)NCC(=O)N[C@H](C(=O)N[C@@H](C)C(=O)N[C@@H](CO)C(=O)N[C@@H](CC(C)C)C(=O)N[C@@H](C)C(=O)N[C@@H](CCCCN)C(=O)N[C@@H](Cc1cnc[nH]1)C(=O)N[C@@H](Cc1ccccc1)C(N)=O)C(C)C)C(C)C", "Quantity Unit": "µM", "MIC": 25}
{"Given Smiles": "CC[C@H](C)[C@H](NC(=O)[C@H](C)NC(=O)CNC(=O)[C@H](CC(C)C)NC(=O)[C@@H](NC(=O)[C@H](CCCCN)NC(=O)[C@H](CCCCN)NC(=O)[C@@H](NC(=O)[C@@H](NC(=O)CNC(=O)[C@H](CC(C)C)NC(=O)[C@H](CC(C)C)NC(=O)[C@H](CCCCN)NC(=O)[C@@H](N)CC(C)C)[C@@H](C)CC)C(C)C)C(C)C)C(N)=O", "Quantity Unit": "µM", "MIC": 3}
{"Given Smiles": "CC[C@H](C)[C@H](NC(=O)[C@H](CCCN=C(N)N)NC(=O)[C@H](CCC(N)=O)NC(=O)[C@@H](NC(=O)[C@H](CCC(N)=O)NC(=O)[C@H](CCCN=C(N)N)NC(=O)[C@H](CCCCN)NC(=O)[C@@H](N)Cc1ccccc1)C(C)C)C(=O)N[C@@H](CCCCN)C(=O)N[C@@H](CC(=O)O)C(=O)N[C@@H](Cc1ccccc1)C(=O)N[C@@H](CC(C)C)C(=O)N[C@@H](CCCN=C(N)N)C(=O)O", "Quantity Unit": "µM", "MIC": 10}

// query State recorded MIC with Escherichia coli ATCC 25922, entry CC(C)C[C@H](NC(=O)[C@H](CCCN=C(N)N)NC(=O)[C@H](CCCCN)NC(=O)[C@H](Cc1c[nH]c2ccccc12)NC(=O)[C@@H](NC(=O)[C@H](CCCCN)NC(=O)[C@H](CCCCN)NC(=O)[C@H](CCCN=C(N)N)NC(=O)[C@H](CC(C)C)NC(=O)[C@H](CCCN=C(N)N)NC(=O)[C@@H](N)CCCN=C(N)N)[C@@H](C)O)C(=O)N[C@@H](Cc1c[nH]c2ccccc12)C(N)=O , no comment.
// result 16

// query Lab note: Escherichia coli ATCC 25922 assay, enter MIC for C[C@@H]1NC(=O)[C@@H](N)CSSC[C@@H](C(=O)N[C@@H](CCCN=C(N)N)C(=O)N[C@@H](Cc2c[nH]c3ccccc23)C(=O)N[C@@H](Cc2c[nH]c3ccccc23)C(=O)N[C@@H](Cc2c[nH]c3ccccc23)C(=O)N[C@@H](CCCN=C(N)N)C(=O)N[C@@H](CCCN=C(N)N)C(N)=O)NC(=O)[C@H](Cc2ccccc2)NC(=O)[C@H](Cc2ccc(O)cc2)NC(=O)[C@H](CO)NC1=O here
// result 8

// query Please report the measured MIC for CC[C@H](C)[C@H](NC(=O)CNC(=O)[C@H](CC(C)C)NC(=O)[C@H](CO)NC(=O)[C@H](CCC(=O)O)NC(=O)[C@H](CCSC)NC(=O)[C@H](CCCCN)NC(=O)[C@H](C)NC(=O)[C@H](CCCCN)NC(=O)[C@H](CC(=O)O)NC(=O)[C@@H](NC(=O)[C@@H](N)C(C)C)[C@@H](C)CC)C(=O)N[C@H](C(=O)N[C@@H](CO)C(=O)N[C@@H](CCCN=C(N)N)C(=O)N[C@@H](CC(=O)O)C(=O)N[C@H](C(=O)N[C@H](C(=O)O)[C@@H](C)O)[C@@H](C)O)[C@@H](C)O tested on Escherichia coli ATCC 25922.
// result 15.9

// query Print Escherichia coli ATCC 25922 MIC for CC[C@H](C)[C@H](NC(=O)CNC(=O)[C@H](C)NC(=O)[C@@H](NC(=O)[C@@H](NC(=O)CN)[C@@H](C)CC)[C@@H](C)CC)C(=O)N[C@@H](C)C(=O)N[C@H](C(=O)N[C@@H](CCCCN)C(=O)N[C@H](C(=O)N[C@@H](CCCCN)C(=O)N[C@@H](CCCCN)C(N)=O)[C@@H](C)CC)[C@@H](C)CC .
// result 64

// query Report MIC on Escherichia coli ATCC 25922 for this entry: CC[C@H](C)[C@H](NC(=O)[C@H](CCCN=C(N)N)NC(=O)[C@H](CCCCN)NC(=O)[C@@H](NC(=O)[C@H](CCCCN)NC(=O)[C@H](CCCN=C(N)N)NC(=O)[C@@H](N)CCCCN)C(C)C)C(=O)N[C@@H](CCCCN)C(=O)N[C@@H](CCCCN)C(=O)N[C@@H](Cc1ccccc1)C(=O)N[C@@H](CC(C)C)C(=O)N[C@@H](CCCN=C(N)N)C(=O)O
// result 0.625
